- Test system: HCT-116 colon
- Experimental Protocol: NCI tumour cell line growth inhibition, 48 h
In this section, each of the compounds is paired with its reported log10 of TGI.
Kindly note that the scale is log10 and the underlying TGI is in µM.

These recorded examples may help you get a feel for the data.
1) O=C1/C(=C/c2ccc(O)cc2)CCC1CNc1ccc(Cl)cc1 (stereo not drawn) = 0.76
2) COc1ccc(N=NN2CCCC2)cc1 = 1.59

Read off the recorded log10 of TGI for CCOc1ccc2c(c1)/C(=C\C=C\C1CC(C)C3CC(OCC)CCC3N1CC)CC(C)N2CC (stereo not drawn)
0.34

// Input: CCCCOC(=O)N[C@H]1CCc2cc(OC)c(OC)c(OC)c2-c2ccc(SC)c(=O)cc21 . Output its log10 of TGI only.
0.07

Dear colleague, please send me the reported log10 of TGI for CC1(c2cccc(C3CCC4(C=CC3=O)OCCO4)c2)OCCO1 (stereo not drawn) when you can.
1.12

* * *

In this section, each of the compounds is paired with its reported log10 TGI.
- Tested on: MDA-MB-435
- Experimental Protocol: NCI tumour cell line growth inhibition, 48 h
Heads up, the numbers here are log10 of TGI in µM units.

1. O=C(O)/C(Cl)=C(/Cl)C(=O)Nc1cccc(Cl)c1 = 1.67
2. CC(C)[C@]12O[C@H]1[C@@H]1O[C@]13[C@]1(O[C@H]1C[C@H]1c4c(C(=O)c5ccccc5)oc(OC(=O)c5ccccc5)c4CC[C@@]13C)[C@@H]2O = -1.44
3. COC(=O)c1ccc(/C=C/C2=CC(=O)C=CC2=O)cc1 = 1.64

Consider the compound NS(=O)(=O)c1ccc(-n2nc(-c3ccc(Cl)cc3)cc2C2=CC(=O)C=CC2=O)cc1 . State its measured log10 TGI.
1.83

Quote log10 TGI reported for COc1cc(-c2ccc(-c3ccc(C(=N)N)s3)s2)cc(OC)c1OC please.
0.49

Provide measured log10 TGI value, entry: CNCCNc1nc2ccccc2c2c(=O)c3cccc(OC)c3sc12
0.49

Find the measured log10 TGI of CCOC(=O)Cc1csc(/N=C\c2c(O)c3ccccc3oc2=O)n1 and report it.
1.93

Fill in reported log10 TGI for this entry: C=C1C(=O)OC2C(C)C3C=CC(=O)[C@@]3(C)C(OC(=O)/C(C)=C/C)C1[C@@H]2OC(C)=O (stereo not given in full)
-0.07

Look up and state reported log10 TGI for COc1ccc(C2CC(c3cc(OC)c(OC)c(OC)c3)=NN2)cc1 (stereo not given)
1.32

Please report the measured log10 TGI for O=Nc1c(-c2cccc([N+](=O)[O-])c2)nc2ncccn12
1.56

For the compound C[n+]1c2ccccc2c(NC2CCNCC2)c2[nH]c3ccccc3c21 , give its measured log10 TGI value.
0.93

Tell me its log10 TGI given CC(C)C[C@H](NC(=O)[C@@H](Cc1cccc2ccccc12)NC(=O)N1CCOCC1)B(O)O as the entry.
0.58

Look up and state reported log10 TGI for CSC(=S)N/N=C(\C)c1ccccn1
1.22

Give a short answer stating reported log10 TGI for COC(=O)CP1(=O)OC2C(C3CCC2(C)C3(C)C)N1c1cc(C(F)(F)F)cc(C(F)(F)F)c1 (stereo not given) .
1.78

Please report log10 TGI for the following compound: COc1ccc2c(c1)CCC(CN1CCN(CCOC(c3ccc(F)cc3)c3ccc(F)cc3)CC1)=C2
1.84

Determine from records and report log10 TGI for Cn1c2ccccc2c2c3c(c4c5ccccc5n(CCCCCC#N)c4c21)C(=O)N(O)C3=O
0.98

Look up and state reported log10 TGI for CCOC(=O)C(=Cc1ccccc1Br)C(=O)OCC
0.71

Tell me its log10 TGI given Cc1ccc(Cl)cc1Nc1nc(C(F)(F)F)ccc1C(=O)Oc1ccc(Cl)cc1 as the entry.
1.72

Output measured log10 TGI for this item: COc1cc(O)c(C(=O)/C=C/c2ccc(O)cc2)cc1Oc1ccc(C(=O)/C=C/c2ccc(O)cc2)c(O)c1
1.07

Identify measured log10 TGI corresponding to COc1ccccc1Nc1nc(-c2cc3cccc(C(F)(F)F)c3oc2=O)cs1
-0.79

Give the value of log10 TGI reported for the following: Cc1ccccc1NC(=O)NC(CC(N)=O)c1ccc2c(c1)nc(-c1cccc(Oc3ccc(C(C)(C)C)cc3)c1)n2CCCN1CCCCC1C (stereo not given)
0.52

Provide only the value of recorded log10 TGI for COc1cc2c(/C=C3\C(=O)Nc4ccc(Br)cc43)c(Cl)n(C)c2cc1C
-0.10

Return log10 TGI for the following compound: CCOC(=O)c1ccc(N=C/C=C(\Nc2ccc(C(=O)OCC)cc2)c2ccc3ccccc3c2)cc1
1.52

Query log10 TGI for COc1ccc(N(C(=O)OC(C)(C)C)[C@@H]2C(C)=C[C@H]([S@@](=O)c3ccc(C)cc3)[C@@H]3C(=O)N(C)C(=O)[C@@H]32)cc1
1.58

* * *

- Test system: RXF 393 renal
- Experimental Protocol: NCI tumour cell line growth inhibition, 48 h
Measured Parameter: GI50

Tell us which GI50 value is on record for C=C1C(=O)O[C@H]2[C@H]1CC/C(Cn1cc(CCC)nn1)=C\CC[C@@]1(C)O[C@@H]21
4.8 µM

Read off the recorded GI50 for NC(=O)NC(=O)CI
5.97 µM

* * *

- Test system: OVCAR-3 ovarian
- Experimental Protocol: NCI tumour cell line growth inhibition, 48 h
Measured Parameter: TGI

1. COc1ccccc1Nc1nc(-c2cc3cccc(C(F)(F)F)c3oc2=O)cs1 = 0.203 µM
2. CN(C)CCn1cc(-c2ccc3c(Nc4ccc(CC(=O)Nc5cccc(F)c5)cc4)ncnc3c2)cn1 = 3.48 µM
3. COc1ccc(N(C(=O)OC(C)(C)C)[C@@H]2C(C)=C[C@H]([S@@](=O)c3ccc(C)cc3)[C@@H]3C(=O)N(C)C(=O)[C@@H]32)cc1 = 80.8 µM
4. C[n+]1c2ccccc2c(NC2CCNCC2)c2[nH]c3ccccc3c21 = 5.87 µM

Identify TGI associated with the compound N#Cc1ccc(Nc2nc3nc[nH]c3c(=O)[nH]2)cc1
> 100 µM

For the compound Brc1ccc(-c2ccc(-c3ccc(Br)s3)s2)s1 , give its measured TGI value.
> 100 µM

Name the recorded TGI of the item N=C(/C=C/c1ccc(-c2cn3cc(/C=C/C(=N)N4CCOCC4)ccc3n2)cc1)N1CCOCC1 in your answer.
> 100 µM

Output TGI of Cn1cc(C(=O)C2CCCCC2)ccc1=O
> 100 µM

* * *

- System: SF-295 CNS
- Experimental Protocol: NCI tumour cell line growth inhibition, 48 h
Measured Parameter: TGI

1) Brc1ccc(-c2ccc(-c3ccc(Br)s3)s2)s1 = > 100 µM

Return TGI for the following molecule: C[Si](C)(C)/C(Br)=C\CCN1C(=O)CCC1O (stereo not drawn)
> 100 µM

Given the molecule O=C(CCN1CCCC1)Nc1ccc2c(NCCCCc3ccccc3)c3ccccc3nc2c1 , write its reported TGI.
2.88 µM

Supply recorded TGI for C=C1C(=O)O[C@H]2[C@H]1CC/C(Cn1cc(CCC)nn1)=C\CC[C@@]1(C)O[C@@H]21 here.
39.2 µM

Give the value of TGI reported for the following: N#CC(C(=O)c1ccccc1F)c1nc2cc(C(F)(F)F)ccc2s1 (stereo not drawn)
73.4 µM

Give the reported TGI for this molecule. CC(=O)OC(C)(C)C1CCC(C)(C(O)COc2ccc(CCNC(=O)c3ccccc3)cc2)O1 (stereo not drawn)
> 100 µM

* * *

Each item that follows carries a reported TGI.
- Tested on: IGROV1 ovarian
- Experimental Protocol: NCI tumour cell line growth inhibition, 48 h

Solved entries:
1. O=C(CC1C(=O)Nc2ccccc2S1=O)Nc1cccc(Cl)c1 (stereo not drawn) = > 67.1 µM
2. O=[N+]([O-])c1ccccc1S(=O)(=O)N1CCCc2cc(Cl)ccc21 = > 100 µM
3. Cc1cc2c(=O)cc(-c3ccc(Cl)cc3)oc2c(C(=O)O)c1C = > 100 µM
4. COC(=O)CSc1[nH]c2nc(C)nc(Nc3ccccc3)c2c1C#N = > 10 µM
5. Fc1ccc(C(=NCc2ccccc2)N2CCOCC2)cc1 = > 100 µM

Supply reported TGI belonging to this molecule: N#Cc1ccc(Nc2nc3nc[nH]c3c(=O)[nH]2)cc1
> 100 µM

Assign TGI to the following record: CCOc1ccc(NC(=O)C2=C(C)NC(C)=C(C(=O)Nc3ccc(OCC)cc3)C2c2ccc([N+](=O)[O-])cc2)cc1
> 100 µM

Read the entry Cc1cc(SCC(=O)c2ccc(Br)cc2)cc(C)[o+]1 and write its reported TGI.
> 100 µM

Input C[Si](C)(C)C#C[I+]c1ccccc1 , output reported TGI.
> 100 µM

# return recorded TGI for entry CCOC(=O)Cc1csc(/N=C\c2c(O)c3ccccc3oc2=O)n1
> 100 µM

Give TGI for N=C(/C=C/c1ccc(-c2cn3cc(/C=C/C(=N)N4CCOCC4)ccc3n2)cc1)N1CCOCC1
> 100 µM

Look up TGI of CC(O)CN(CCN(CC(C)O)CC(C)O)CC(C)O.O=[N+]([O-])O.[Cu+2] (stereo not drawn) and report it.
> 100 µM

Identify measured TGI associated with COc1ccc2c(c1)CC[C@@H]1C2CC[C@]2(C)OC(=O)CCC12 (stereo partly drawn)
> 100 µM

Give reported TGI value for Brc1ccc(-c2ccc(-c3ccc(Br)s3)s2)s1
> 100 µM
